Test: Inhibition of yeast alpha-glucosidase using p-nitrophenylglucopyranoside as substrate preincubated for 10 mins followed by substrate addition and measured after 20 mins by spectrophotometric method
Design: species or system Saccharomyces cerevisiae
Please go through the items and note down their pIC50.
One number for each entry, as −log10 of the molar value.

Known results for compounds:
> print(dat)
                           structure.string  result
1  Clc1ccc(-c2nc(-c3ccccc3)c3n2CCc2c-3[nH]c3ccccc23)cc1    3.91
2  Cc1ccc(-c2nc(-c3cccc(C)c3)n3c2-c2[nH]c4ccccc4c2CC3)cc1    3.65
3  COc1ccc(-c2nc(-c3ccc(Cl)cc3)c3n2CCc2c-3[nH]c3ccc(OC)cc23)cc1    3.84
4  Clc1ccc(-c2nc(-c3ccccc3)n3c2-c2[nH]c4ccccc4c2CC3)cc1    4.09

Hello, I would appreciate it if you could give pIC50 for each entry below.
1. Clc1ccc(-c2nc(-c3ccc(Br)cc3)c3n2CCc2c-3[nH]c3ccccc23)cc1
2. Clc1ccc(-c2nc(-c3cccs3)n3c2-c2[nH]c4ccccc4c2CC3)cc1
3. COc1ccc2[nH]c3c(c2c1)CCn1c(-c2ccc(Cl)cc2)nc(-c2ccc(C)cc2)c1-3
4. Fc1ccc(-c2nc(-c3ccccc3)c3n2CCc2c-3[nH]c3ccccc23)cc1
5. COc1ccc(-c2nc(-c3ccc(Br)cc3)c3n2CCc2c-3[nH]c3ccccc23)cc1

Key:
1. 3.63
2. 3.56
3. 3.65
4. 3.74
5. 4.07
